All values here come from patent US20180215825A1.

# system: T1, human PD-L1-ECD/His (human, UniProt Q9NZQ7 19-238)
# T1 construct: Expressed in 293-F cells; also called PD-L1/His; human PD-L1/His
# T1 sequence (Q9NZQ7 19-238): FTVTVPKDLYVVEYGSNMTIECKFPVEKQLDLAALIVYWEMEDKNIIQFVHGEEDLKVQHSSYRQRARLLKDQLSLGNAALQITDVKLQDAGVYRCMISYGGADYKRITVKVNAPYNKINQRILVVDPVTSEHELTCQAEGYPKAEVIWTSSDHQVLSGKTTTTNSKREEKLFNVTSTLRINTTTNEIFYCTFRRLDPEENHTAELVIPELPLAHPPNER
# protocol_text: SPR (BIAcore T-200), human PD-L1/His on CM5 chip, Fab injected
# Description: For affinity determinations of anti-PD-L1 Fabs, SPR assays were performed using BIAcore™ T-200 (GE Life Sciences). […] A serial dilutions of 0.12 nM to 90 nM Fab samples were injected, mixed into the SPR running buffer (10 mM HEPES, 150 mM NaCl, 0.05% Tween20, pH7.4) at 30 μL/minute, and binding responses on human PD-L1/His were calculated by substracting of RU from a blank flow-cell. […] The equilibrium dissociation constant (Kd) was calculated as the ratio koff/kₒₙ. […]
readout_label: Kd (pM)
// note: answer is a bare numeric in pM

// Input: hu333-4B2 Fab (Fab, V domains shown, Human IgG1 Fab format: Vh fused to human IgG1-CH1 with C-terminal His6 tag, Vk fused to the constant region of kappa chain) VH: EVQLVESGGGLVQPGGSLRLSCAVSGFSLTSYGVHWVRQAPGKGLEWVAVIWAGGSTNYADSVKGRFTISKDTSKNTVYLQMNSLRAEDTAVYYCAKPYGTSAMDYWGQGTLVTVSS VL: DIQMTQSPSSLSASVGDRVTITCKASQDVGIVVAWYQQKPGKAPKLLIYWASIRHTGVPSRFSGSGSGTEFTLTISSLQPDDFATYYCQQYSNYPLYTFGQGTKVEIK . Output its Kd only. 3.5
